Biological target: human ether-à-go-go-related gene (hERG) potassium channel (human, UniProt Q12809)
Sequence (Q12809 whole entry, looked up): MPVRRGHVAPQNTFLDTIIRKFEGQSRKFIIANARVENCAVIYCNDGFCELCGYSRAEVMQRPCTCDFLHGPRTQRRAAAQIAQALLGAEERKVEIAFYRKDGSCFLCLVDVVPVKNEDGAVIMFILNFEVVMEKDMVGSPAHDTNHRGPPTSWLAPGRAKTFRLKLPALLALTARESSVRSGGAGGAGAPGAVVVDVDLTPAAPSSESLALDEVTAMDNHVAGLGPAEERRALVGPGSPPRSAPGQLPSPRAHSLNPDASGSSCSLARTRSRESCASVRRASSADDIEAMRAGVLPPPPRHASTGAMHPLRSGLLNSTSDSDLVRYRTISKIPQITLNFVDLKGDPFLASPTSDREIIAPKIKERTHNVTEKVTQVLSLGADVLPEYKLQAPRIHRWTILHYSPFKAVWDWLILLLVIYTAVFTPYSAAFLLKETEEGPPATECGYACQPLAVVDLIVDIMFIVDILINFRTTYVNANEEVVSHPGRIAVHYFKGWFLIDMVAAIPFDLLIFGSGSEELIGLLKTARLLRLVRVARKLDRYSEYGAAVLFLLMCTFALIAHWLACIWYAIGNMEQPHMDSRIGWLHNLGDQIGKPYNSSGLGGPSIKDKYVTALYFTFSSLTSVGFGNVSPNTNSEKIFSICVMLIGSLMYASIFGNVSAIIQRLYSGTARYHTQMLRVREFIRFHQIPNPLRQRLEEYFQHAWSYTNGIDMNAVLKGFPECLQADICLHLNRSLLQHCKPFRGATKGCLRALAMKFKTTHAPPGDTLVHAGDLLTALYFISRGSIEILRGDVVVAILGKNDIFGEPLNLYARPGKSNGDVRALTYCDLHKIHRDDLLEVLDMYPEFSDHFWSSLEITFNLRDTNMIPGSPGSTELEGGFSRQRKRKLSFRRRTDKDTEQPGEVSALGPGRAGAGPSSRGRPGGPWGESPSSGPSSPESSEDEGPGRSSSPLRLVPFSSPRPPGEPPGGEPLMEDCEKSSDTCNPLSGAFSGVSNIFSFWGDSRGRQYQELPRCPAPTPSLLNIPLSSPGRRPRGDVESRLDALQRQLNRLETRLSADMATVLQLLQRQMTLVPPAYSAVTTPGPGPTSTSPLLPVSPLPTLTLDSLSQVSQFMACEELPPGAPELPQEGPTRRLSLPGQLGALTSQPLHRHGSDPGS
Experiment: primary screen, population patch clamp on CHO cells stably expressing hERG; higher = less effect of the substance
In all, about 310,000 compounds went through this assay and about 14,000 (4.5%) showed an effect of 50% or more. The effect is printed as a negative number. Shown is part of a subset that was picked to be rich in strong results.
Outcome: MET for hERG current change (%, negative = inhibition) at 10uM of at least -20%; NOT MET for anything lower.

molecule: COc1cc(-c2noc(C)c2C#Cc2nccn2C)cc(OC)c1OC
class: NOT MET
--
molecule: Cc1ccc(OCC(=O)Nc2ccccc2N2CCCC2)c(C)c1
class: MET
--
molecule: Cc1ccc(C(=O)N/C(=C\c2cn(S(=O)(=O)N(C)C)c3ccccc23)C(=O)NCCCN2CCOCC2)cc1
class: MET
--
molecule: COc1ccc(/C(N)=C/C(=O)C(C)(C)C)cc1
class: MET
--
molecule: COc1cc(-c2noc(C)c2C#Cc2ccccn2)cc(OC)c1OC
class: NOT MET
--
molecule: CC(=O)c1ccccc1C(=O)N(C)C1CCCN(Cc2ccccc2F)C1 (stereo not shown)
class: MET
--
molecule: O=C(NC(=S)NCCN1CCOCC1)c1ccc(Cl)cc1
class: MET
--
molecule: Cc1ccc(C(=O)N/C(=C\c2cccs2)C(=O)NCCCN2CCOCC2)cc1
class: NOT MET
--
molecule: Cc1ccc(C(=O)N/C(=C\c2ccco2)C(=O)NCCN2CCOCC2)cc1
class: NOT MET

###

Biological target: human ether-à-go-go-related gene (hERG) potassium channel (human, UniProt Q12809)
Experiment: primary screen, population patch clamp on CHO cells stably expressing hERG; higher = less effect of the substance
Hit rate of the full screen: of about 310,000 compounds, about 14,000 (4.5%) showed an effect of 50% or more. Effects have a minus sign here. For the sample, strong results were picked, then their nearest neighbours and some compounds at random.
Reported values of hERG current change (%, negative = inhibition) at 10uM for individual entries
outcome-measure: hERG current change (%, negative = inhibition) at 10uM (%)

compound: O=P(O)(O)CCP(=O)(c1ccccc1)c1ccccc1
assay-system: human ether-à-go-go-related gene (hERG) potassium channel (human, UniProt Q12809)
reading: 9.46

compound: C=CCOC(Cn1ccnc1)c1ccc(Cl)cc1Cl (centres unmarked)
assay-system: human ether-à-go-go-related gene (hERG) potassium channel (human, UniProt Q12809)
reading: -29.6

compound: COc1ccc(NC(=O)CSc2nnc(NC(=O)C3CCC3)s2)c(OC)c1
assay-system: human ether-à-go-go-related gene (hERG) potassium channel (human, UniProt Q12809)
reading: 12.6

compound: Clc1ccc(C(c2ccc(Cl)cc2)n2cc[n+](CC(OCc3ccc(Cl)cc3Cl)c3ccc(Cl)cc3Cl)c2)cc1.[Cl-] (centres unmarked)
assay-system: human ether-à-go-go-related gene (hERG) potassium channel (human, UniProt Q12809)
reading: -62.8

compound: O=C(O)CCCCCCCCCCP(=O)(c1ccccc1)c1ccccc1
assay-system: human ether-à-go-go-related gene (hERG) potassium channel (human, UniProt Q12809)
reading: -7.05

###

Target: human ether-à-go-go-related gene (hERG) potassium channel (human, UniProt Q12809)
Assay: primary screen, population patch clamp on CHO cells stably expressing hERG; higher = less effect of the substance
Method: Briefly, Chinese hamster ovary (CHO) cells stably expressing the hERG channel were dislodged from tissue culture flasks and dispensed into PPC plates. […] During the recording, background leak currents were estimated by a 100 ms step to -80 mV from an initial holding potential of -70 mV and subtracted from the subsequent current measurement. The campaign was conducted in two phases using slight differences in recording protocol. […]
Among all 310,000 compounds or so, about 14,000 (4.5%) showed an effect of 50% or more. Effects have a minus sign here. This excerpt belongs to a sample that is enriched for strong results.
outcome-measure: hERG current change (%, negative = inhibition) at 10uM (%)

compound: Cn1c(C(=O)NC2CC2)cc(=O)n(C)c1=O
assay-system: human ether-à-go-go-related gene (hERG) potassium channel (human, UniProt Q12809)
reading: -8
//
compound: O=C(NCc1cccnc1)NC1CC(=O)N(c2ccc3c(c2)OCCO3)C1 (stereo not shown)
assay-system: human ether-à-go-go-related gene (hERG) potassium channel (human, UniProt Q12809)
reading: -0.536
//
compound: CC(Cc1cccs1)NC(=O)Nc1ccc(F)cc1 (stereo not shown)
assay-system: human ether-à-go-go-related gene (hERG) potassium channel (human, UniProt Q12809)
reading: 18.2
//
compound: CCOC(=O)c1c(C)n(Cc2ccco2)c2c1cc(O)c1ccccc12
assay-system: human ether-à-go-go-related gene (hERG) potassium channel (human, UniProt Q12809)
reading: 6.11
//
compound: CSCC(C)N1CCC(n2nccc2NC(=O)CCCc2ccccc2)CC1 (stereo not shown)
assay-system: human ether-à-go-go-related gene (hERG) potassium channel (human, UniProt Q12809)
reading: -47.5
//
compound: Cc1ccc(NS(=O)(=O)c2ccc(C(=O)NCc3cccnc3)cc2)cc1
assay-system: human ether-à-go-go-related gene (hERG) potassium channel (human, UniProt Q12809)
reading: -4.14
//
compound: COCC(C)N1CCC(n2nccc2NC(=O)CCCc2ccccc2)CC1 (stereo not shown)
assay-system: human ether-à-go-go-related gene (hERG) potassium channel (human, UniProt Q12809)
reading: -15.2
//
compound: C/C(=N/OCc1ccc(Br)cc1)c1ccccn1
assay-system: human ether-à-go-go-related gene (hERG) potassium channel (human, UniProt Q12809);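 note: peak tail current of the secondary pulse compared with the same well before compound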
reading: 6.29
//
compound: O=C(c1ccccc1Cc1ccccc1)N1CCN(S(=O)(=O)c2ccccc2)CC1
assay-system: human ether-à-go-go-related gene (hERG) potassium channel (human, UniProt Q12809);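 note: peak tail current of the secondary pulse compared with the same well before compound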
reading: -6.88
//
compound: Cc1cccc(CN2CCC(n3nccc3NC(=O)CCCc3ccccc3)CC2)n1
assay-system: human ether-à-go-go-related gene (hERG) potassium channel (human, UniProt Q12809);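 note: peak tail current of the secondary pulse compared with the same well before compound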
reading: -20.2

###

Biological target: human ether-à-go-go-related gene (hERG) potassium channel (human);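 note: peak tail current of the secondary pulse compared with the same well before compound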
Assay: primary screen, population patch clamp on CHO cells stably expressing hERG; higher = less effect of the substance
Out of some 310,000 compounds screened, about 14,000 (4.5%) showed an effect of 50% or more. Effects have a minus sign here. The full list was thinned out, with strong results kept by preference.
outcome-measure: hERG current change (%, negative = inhibition) at 10uM

molecule: Cc1ccc(Nc2c(-c3ccco3)nc3ccccn23)cc1
reading: 2.78%
--
molecule: O=C(O)CSc1ncnc2c1sc1nc(-c3ccccc3)c3c(c12)CCC3
reading: 10.3%
--
molecule: O=C(NC(=S)NCCCN1CCOCC1)c1ccc([N+](=O)[O-])cc1
reading: -33.4%
--
molecule: CCOC(=O)c1[nH]cnc1C(=O)O
reading: -2.12%
--
molecule: C[C@@H](C(=O)O)[C@@H]1C[C@@]1(C)[C@@H](NC(=O)OCc1ccccc1)c1ccccc1
reading: 16.8%
--
molecule: CCOC(=O)C1=C(C)Nc2ccccc2N=C1NC(=O)c1cccc(S(=O)(=O)NCc2ccccc2)c1
reading: -19.4%
--
molecule: COc1ccc(/C=C(\NC(=O)c2ccccc2)C(=O)NCCN2CCOCC2)cc1OC
reading: 23%
--
molecule: O=C(NC1CCCN(Cc2ccc(Cl)cc2)C1)c1cnc2ccccn2c1=O (stereo not shown)
reading: -21.8%
--
molecule: COc1ccc(/C=C(\NC(=O)c2ccc([N+](=O)[O-])cc2)C(=O)NCCCN2CCOCC2)cc1
reading: -77%
--
molecule: O=C(Nc1ccc2c(c1)OCCO2)C1CCN(C(=O)c2ccc([N+](=O)[O-])cc2)CC1
reading: -65.6%
--
molecule: O=C(Nc1ccc2c(c1)OCO2)C1CCN(C(=O)c2ccc([N+](=O)[O-])cc2)CC1
reading: -84.2%
--
molecule: CC1CC(C)CN(C(=O)CSCC(=O)O)C1 (stereo not shown)
reading: 1.3%
--
molecule: CC(C)Cc1ccc(CN2CCCC(NC(=O)c3ccoc3)C2)cc1 (stereo not shown)
reading: -70.9%
--
molecule: COc1ccc(C(=O)N/C(=C\c2ccco2)C(=O)NCCN2CCOCC2)cc1
reading: 8.33%
--
molecule: CC(C)Cc1ccc(CN2CCCC(NC(=O)c3cnc4ccccn4c3=O)C2)cc1 (stereo not shown)
reading: -71.8%
--
molecule: O=C(Nc1ccc2c(c1)OCO2)C1CCN(S(=O)(=O)c2ccc3c(c2)OCCO3)CC1
reading: 7.45%
--
molecule: COc1ccc(/C=C(\NC(=O)c2ccc([N+](=O)[O-])cc2)C(=O)NCCN2CCOCC2)cc1
reading: -70.7%
--
molecule: O=C(Nc1ccc2c(c1)OCCO2)C1CCC1
reading: 7.7%
--
molecule: COc1ccc(C(=O)N/C(=C\c2cn(C)c3ccccc23)C(=O)NCCCN2CCOCC2)cc1
reading: 4.94%
